The measurements presented in this section are drawn from ChEMBL document CHEMBL2203235.

test system: Liver microsomes; experiment: Metabolic stability in human liver microsomes at 1 uM after 60 mins by LC/MS/MS analysis; conditions: 1 h

compoundString: CCO[C@@H]([C@H]1C[C@@H](C)[C@H]2[C@H](O1)[C@H](O)[C@@]1(C)[C@@H]3CC[C@H]4C(C)(C)[C@@H](O[C@H]5CN([C@@H]6CCOC6)CCO5)CC[C@@]45C[C@@]35CC[C@]21C)C(C)(C)O
Stability: Stable
--
compoundString: CC(C)[C@@H](OC(=O)N1CCC1)[C@H]1C[C@@H](C)[C@H]2[C@H](O1)[C@H](O)[C@@]1(C)[C@@H]3CC[C@H]4C(C)(C)[C@@H](OC(=O)N5CCC(F)(F)CC5)CC[C@@]45C[C@@]35CC[C@]21C
Stability: Stable
--
compoundString: CCO[C@@H]([C@H]1C[C@@H](C)[C@H]2[C@H](O1)[C@H](O)[C@@]1(C)[C@@H]3CC[C@H]4C(C)(C)[C@@H](OC(=O)NCCNS(=O)(=O)C(F)(F)F)CC[C@@]45C[C@@]35CC[C@]21C)C(C)(C)O
Stability: Stable
--
compoundString: CCO[C@@H]([C@H]1C[C@@H](C)[C@H]2[C@H](O1)[C@H](O)[C@@]1(C)[C@@H]3CC[C@H]4C(C)(C)[C@@H](OC(=O)NCCN5CCC5)CC[C@@]45C[C@@]35CC[C@]21C)C(C)(C)O
Stability: Stable

====

experiment: Modulation of gamma secretase in CHO-2B7 cells assessed as reduction in amyloid beta 42 level after 5 hrs by MSD ELISA; type: cell-based; conditions: Cricetulus griseus, CHO-2B7, 5 h
Rule for this label: rule met means IC50 is less than 1 µM; rule not met means IC50 is at least 1 µM.

compoundString: CCO[C@@H]([C@H]1C[C@@H](C)[C@H]2[C@H](O1)[C@H](O)[C@@]1(C)[C@@H]3CC[C@H]4C(C)(C)[C@@H](O[C@H]5CN(CC(=O)N6CCC6)CCO5)CC[C@@]45C[C@@]35CC[C@]21C)C(C)(C)O
className: rule met
--
compoundString: CC(C)[C@@H](OC(=O)N1CCC1)[C@H]1C[C@@H](C)[C@H]2[C@H](O1)[C@H](O)[C@@]1(C)[C@@H]3CC[C@H]4C(C)(C)[C@@H](OC(=O)NCCNS(=O)(=O)C(F)(F)F)CC[C@@]45C[C@@]35CC[C@]21C
className: rule not met
--
compoundString: COCCN1CCO[C@@H](O[C@H]2CC[C@]34C[C@]35CC[C@]3(C)[C@@H]6[C@H](O[C@@H]([C@H](OC(=O)N7CCC7)C(C)C)C[C@H]6C)[C@H](O)[C@@]3(C)[C@@H]5CC[C@H]4C2(C)C)C1
className: rule met
--
compoundString: CC(C)[C@@H](OC(=O)N1CCC1)[C@H]1C[C@@H](C)[C@H]2[C@H](O1)[C@H](O)[C@@]1(C)[C@@H]3CC[C@H]4C(C)(C)[C@@H](OC(=O)N(C)CC(=O)O)CC[C@@]45C[C@@]35CC[C@]21C
className: rule not met
--
compoundString: C[C@@H]1C[C@H]([C@H](O)C(C)(C)O)O[C@H]2[C@H]1[C@@]1(C)CC[C@@]34C[C@@]35CC[C@H](O[C@H]3CN(C(=O)C6(C)COC6)CCO3)C(C)(C)[C@@H]5CC[C@H]4[C@]1(C)[C@H]2O
className: rule met
--
compoundString: CC(C)[C@@H](OC(=O)N1CCC1)[C@H]1C[C@@H](C)[C@H]2[C@H](O1)[C@H](O)[C@@]1(C)[C@@H]3CC[C@H]4C(C)(C)[C@@H](OC(=O)NC5CCOCC5)CC[C@@]45C[C@@]35CC[C@]21C
className: rule not met
--
compoundString: C[C@@H]1C[C@H]([C@H](O)C(C)(C)O)O[C@H]2[C@H]1[C@@]1(C)CC[C@@]34C[C@@]35CC[C@H](O[C@H]3CN(CC(N)=O)CCO3)C(C)(C)[C@@H]5CC[C@H]4[C@]1(C)[C@H]2O
className: rule met

====

assay: Modulation of gamma secretase in CHO-2B7 cells assessed as reduction in amyloid beta 42 level after 5 hrs by MSD ELISA; assay type: cell-based; settings: Cricetulus griseus, CHO-2B7, 5 h
pIC50: −log10 of the molar value.
Entries and their measured pIC50 follow.

compoundString: C[C@@H]1C[C@H]([C@H](O)C(C)(C)O)O[C@H]2[C@H]1[C@@]1(C)CC[C@@]34C[C@@]35CC[C@H](O[C@H]3CN(C(=O)CC6CC6)CCO3)C(C)(C)[C@@H]5CC[C@H]4[C@]1(C)[C@H]2O
pIC50: 7.15
//
compoundString: CCO[C@@H]([C@H]1C[C@@H](C)[C@H]2[C@H](O1)[C@H](O)[C@@]1(C)[C@@H]3CC[C@H]4C(C)(C)[C@@H](O[C@H]5CN([C@H]6CCOC6)CCO5)CC[C@@]45C[C@@]35CC[C@]21C)C(C)(C)O
pIC50: 6.38
//
compoundString: CC(=O)O[C@@H]([C@H]1C[C@@H](C)[C@H]2[C@H](O1)[C@H](O)[C@@]1(C)[C@@H]3CC[C@H]4C(C)(C)[C@@H](O[C@H]5CN(C(=O)CC6CC6)CCO5)CC[C@@]45C[C@@]35CC[C@]21C)C(C)(C)O
pIC50: 6.89
//
compoundString: CNC(=O)O[C@H](C(C)C)[C@H]1C[C@@H](C)[C@H]2[C@H](O1)[C@H](O)[C@@]1(C)[C@@H]3CC[C@H]4C(C)(C)[C@@H](OC(=O)N5CCOCC5)CC[C@@]45C[C@@]35CC[C@]21C
pIC50: 5.34

====

test system: Liver microsomes; test: Metabolic stability in human liver microsomes at 1 uM after 60 mins by LC/MS/MS analysis; details: 1 h
measuredMetric: Stability

compoundString: CC(=O)N1CCN(C(=O)O[C@H]2CC[C@]34C[C@]35CC[C@]3(C)[C@@H]6[C@H](O[C@@H]([C@H](OC(=O)N7CCC7)C(C)C)C[C@H]6C)[C@H](O)[C@@]3(C)[C@@H]5CC[C@H]4C2(C)C)CC1
testSystem: Liver microsomes
measuredMetric: Stability
observed: Stable
--
compoundString: CCO[C@@H]([C@H]1C[C@@H](C)[C@H]2[C@H](O1)[C@H](O)[C@@]1(C)[C@@H]3CC[C@H]4C(C)(C)[C@@H](O[C@H]5CN(CCCC(=O)O)CCO5)CC[C@@]45C[C@@]35CC[C@]21C)C(C)(C)O
testSystem: Liver microsomes
measuredMetric: Stability
observed: Stable

====

assay: Volume of distribution in rat at 3 mg/kg, iv; type: ADME, organism-based; set-up: dose 3 mg/kg, route intravenous; details: in vivo

compoundString: C[C@@H]1C[C@H]([C@H](O)C(C)(C)O)O[C@H]2[C@H]1[C@@]1(C)CC[C@@]34C[C@@]35CC[C@H](O[C@H]3CN([C@H]6CCNC6=O)CCO3)C(C)(C)[C@@H]5CC[C@H]4[C@]1(C)[C@H]2O
Vd [L/kg]: 3.1

====

test: Ratio of drug uptake in brain to plasma in CD1 mouse at 1 mg/kg, iv at 2 hrs; format: ADME, organism-based; design: dose 1 mg/kg, route intravenous; settings: brain and plasma, read-out: BPR

compoundString: CC(C)[C@@H](OC(=O)N1CCC1)[C@H]1C[C@@H](C)[C@H]2[C@H](O1)[C@H](O)[C@@]1(C)[C@@H]3CC[C@H]4C(C)(C)[C@@H](O[C@H]5CNCCO5)CC[C@@]45C[C@@]35CC[C@]21C
Kp at 2 h: 0.09

====

assay: Ratio of drug uptake in brain to plasma in P-gp knockout mouse at 10 mg/kg, ip at 6 hrs; format: ADME, organism-based; set-up: dose 10 mg/kg, route intraperitoneal; settings: brain and plasma, read-out: BPR
measuredMetric: Kp at 6 h

compoundString: CC(C)[C@@H](OC(=O)N1CCC1)[C@H]1C[C@@H](C)[C@H]2[C@H](O1)[C@H](O)[C@@]1(C)[C@@H]3CC[C@H]4C(C)(C)[C@@H](OC(=O)N(C)C5CN(C)C5)CC[C@@]45C[C@@]35CC[C@]21C
observed: 3.1

====

test: Modulation of gamma secretase in CHO-2B7 cells assessed as reduction in amyloid beta 42 level after 5 hrs by MSD ELISA; format: cell-based; conditions: Cricetulus griseus, CHO-2B7, 5 h

compoundString: CCO[C@@H]([C@H]1C[C@@H](C)[C@H]2[C@H](O1)[C@H](O)[C@@]1(C)[C@@H]3CC[C@H]4C(C)(C)[C@@H](O[C@H]5CN(CC(F)F)CCO5)CC[C@@]45C[C@@]35CC[C@]21C)C(C)(C)O
unitsText: µM
IC50: 0.54
//
compoundString: CC(C)[C@@H](OC(=O)N1CCC1)[C@H]1C[C@@H](C)[C@H]2[C@H](O1)[C@H](O)[C@@]1(C)[C@@H]3CC[C@H]4C(C)(C)[C@@H](OC(=O)N5CC(O)C5)CC[C@@]45C[C@@]35CC[C@]21C
unitsText: µM
IC50: 0.35
//
compoundString: C[C@@H]1C[C@H]([C@H](O)C(C)(C)O)O[C@H]2[C@H]1[C@@]1(C)CC[C@@]34C[C@@]35CC[C@H](OC(=O)N3CCOCC3)C(C)(C)[C@@H]5CC[C@H]4[C@]1(C)[C@H]2O
unitsText: µM
IC50: 9
//
compoundString: CNC(=O)O[C@H](C(C)C)[C@H]1C[C@@H](C)[C@H]2[C@H](O1)[C@H](O)[C@@]1(C)[C@@H]3CC[C@H]4C(C)(C)[C@@H](OC(N)=O)CC[C@@]45C[C@@]35CC[C@]21C
unitsText: µM
IC50: 0.95
//
compoundString: CC(=O)O[C@@H]([C@H]1C[C@@H](C)[C@H]2[C@H](O1)[C@H](O)[C@@]1(C)[C@@H]3CC[C@H]4C(C)(C)[C@@H](OC(=O)N5CCC5)CC[C@@]45C[C@@]35CC[C@]21C)C(C)(C)O
unitsText: µM
IC50: 0.51
//
compoundString: C=C(C)CO[C@@H]([C@H]1C[C@@H](C)[C@H]2[C@H](O1)[C@H](O)[C@@]1(C)[C@@H]3CC[C@H]4C(C)(C)[C@@H](O[C@H]5CN(C6COC6)CCO5)CC[C@@]45C[C@@]35CC[C@]21C)C(C)(C)O
unitsText: µM
IC50: 0.34
//
compoundString: CC(C)[C@@H](OC(N)=O)[C@H]1C[C@@H](C)[C@H]2[C@H](O1)[C@H](O)[C@@]1(C)[C@@H]3CC[C@H]4C(C)(C)[C@@H](O[C@H]5CNCCO5)CC[C@@]45C[C@@]35CC[C@]21C
unitsText: µM
IC50: 0.65
//
compoundString: CCO[C@@H]([C@H]1C[C@@H](C)[C@H]2[C@H](O1)[C@H](O)[C@@]1(C)[C@@H]3CC[C@H]4C(C)(C)[C@@H](O[C@H]5CN(CC(=O)N6CCOCC6)CCO5)CC[C@@]45C[C@@]35CC[C@]21C)C(C)(C)O
unitsText: µM
IC50: 0.23
//
compoundString: CCO[C@@H]([C@H]1C[C@@H](C)[C@H]2[C@H](O1)[C@H](O)[C@@]1(C)[C@@H]3CC[C@H]4C(C)(C)[C@@H](O)CC[C@@]45C[C@@]35CC[C@]21C)C(C)(C)O
unitsText: µM
IC50: 0.35
